Parameter pEC50, tested on 229E Mpro (Human coronavirus 229E (HCoV-229E)), listed per item.
Sequence (P0C6X1 2966-3267 limits assumed): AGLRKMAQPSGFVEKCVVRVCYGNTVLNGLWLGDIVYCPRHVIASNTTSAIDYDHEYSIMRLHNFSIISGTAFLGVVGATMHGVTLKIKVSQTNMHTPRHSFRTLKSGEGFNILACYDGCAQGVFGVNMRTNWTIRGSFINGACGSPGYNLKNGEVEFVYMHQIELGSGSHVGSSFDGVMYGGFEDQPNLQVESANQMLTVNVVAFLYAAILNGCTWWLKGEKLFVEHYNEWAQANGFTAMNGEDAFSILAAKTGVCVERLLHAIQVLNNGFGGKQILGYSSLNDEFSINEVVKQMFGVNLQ
Scale note: pEC50 = -log10(concentration in M).

[in] So what does the record say about pEC50 for `O=C(N[C@@H]1CCN(c2c(OC(F)(F)F)cc(Cl)cc2C(=O)N2CCOCC2)C1)c1cc(=O)[nH]c2c(F)cccc12` ?
[out] 8.50

[in] So what does the record say about pEC50 for `O=C(N[C@@H]1CCN(c2c(C(=O)N3CCOCC3)cc(Br)cc2C(F)(F)F)C1)c1cc(=O)[nH]c2ccccc12` ?
[out] 8.74

[in] So what does the record say about pEC50 for `CN1CCN(C(=O)c2cc(C#N)cc(C3CC3)c2N2CC[C@@H](NC(=O)c3cc(=O)[nH]c4c(F)cccc34)C2)CC1` ?
[out] 8.67

[in] So what does the record say about pEC50 for `N#Cc1cc(C(=O)N2CCOCC2)c(N2CC[C@@H](NC(=O)c3c(F)c(=O)[nH]c4ccccc34)C2)c(C(F)(F)F)c1` ?
[out] 8.63

[in] So what does the record say about pEC50 for `CN1CCN(C(=O)c2cc(Br)cc(C(F)(F)F)c2N2CC[C@@H](NC(=O)c3cc(=O)[nH]c4c(F)cccc34)C2)CC1` ?
[out] 8.70

[in] So what does the record say about pEC50 for `Cc1cc(C(=O)N2CCOCC2)c(N2CC[C@@H](NC(=O)c3cc(=O)[nH]c4c(F)cccc34)C2)c(C2CC2)c1` ?
[out] 8.82

---

Biological target: MERS Mpro (Middle East respiratory syndrome-related coronavirus (isolate United Kingdom/H123990006/2012) (MERS-CoV) (Betacoronavirus England 1))
Sequence (K9N7C7 3248-3553 limits assumed): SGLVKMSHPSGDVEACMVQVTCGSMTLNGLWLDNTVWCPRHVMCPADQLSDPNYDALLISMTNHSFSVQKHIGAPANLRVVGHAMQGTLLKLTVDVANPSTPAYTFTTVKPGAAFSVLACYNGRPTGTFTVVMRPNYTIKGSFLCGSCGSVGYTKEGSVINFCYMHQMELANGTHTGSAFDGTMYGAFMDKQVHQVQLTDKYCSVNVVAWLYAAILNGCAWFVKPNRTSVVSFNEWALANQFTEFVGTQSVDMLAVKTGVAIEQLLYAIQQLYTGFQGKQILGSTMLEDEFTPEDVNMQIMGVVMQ
Experiment: biochemical
Checkbox rule: EC50 lower than 1 nM = 1.0; EC50 not lower than 1 nM = 0.0.

Example entries and their recorded answers appear below.
| Smiles notation | Assigned class |
| --- | --- |
| O=C(N[C@@H]1CCN(c2c(OC(F)(F)F)cc(Cl)cc2C(=O)N2CCOCC2)C1)c1cc(=O)[nH]c2c(F)cccc12 | 0.0 |
| N#Cc1cc(C(=O)N2C[C@H]3COC[C@H]3C2)c(N2CC[C@@H](NC(=O)c3cc(=O)[nH]c4c(F)cccc34)C2)c(C(F)(F)F)c1 | 0.0 |
| O=C(N[C@@H]1CCN(c2c(C(=O)N3CCOCC3)cc(Br)cc2C(F)(F)F)C1)c1cc(=O)[nH]c2c(F)cc(F)cc12 | 1.0 |
| Cc1cc(C(=O)N2CCOCC2)c(N2C[C@H](NC(=O)c3cc(=O)[nH]c4c(F)c(F)ccc34)C[C@H]2C)c(C2CC2)c1 | 0.0 |
| COc1cc(F)cc2[nH]c(=O)cc(C(=O)N[C@@H]3CCN(c4c(C(=O)N5CCOCC5)cc(Br)cc4C(F)(F)F)C3)c12 | 1.0 |

[in] Answer whether the compound `CN1CCN(C(=O)c2cc(C#N)cc(C3CC3)c2N2CC[C@@H](NC(=O)c3cc(=O)[nH]c4c(F)cccc34)C2)CC1` has EC50 strictly less than 1 nM
[out] 1.0

[in] Answer whether the compound `N#Cc1cc(C(=O)N2CC3CC(C2)O3)c(N2CC[C@@H](NC(=O)c3cc(=O)[nH]c4c(F)cccc34)C2)c(C(F)(F)F)c1` has EC50 strictly less than 1 nM
[out] 0.0

[in] Answer whether the compound `O=C(N[C@@H]1CCN(c2c(C(=O)N3CCOCC3)cc(Br)cc2C(F)(F)F)C1)c1cc(=O)[nH]c2c(Cl)cccc12` has EC50 strictly less than 1 nM
[out] 1.0

[in] Answer whether the compound `O=C(N[C@@H]1CCN(c2c(C(=O)N3CCOCC3)cc(Br)cc2C(F)(F)F)C1)c1c(F)c(=O)[nH]c2ccccc12` has EC50 strictly less than 1 nM
[out] 0.0

[in] Answer whether the compound `CCS(=O)(=O)N1CCN(C(=O)c2cc(C#N)cc(C(F)(F)F)c2N2CC[C@@H](NC(=O)c3cc(=O)[nH]c4c(F)cccc34)C2)CC1` has EC50 strictly less than 1 nM
[out] 0.0

[in] Answer whether the compound `O=C(N[C@@H]1CCN(c2c(OC(F)(F)F)cc(Br)cc2C(=O)N2CCOCC2)C1)c1cc(=O)[nH]c2c(F)cccc12` has EC50 strictly less than 1 nM
[out] 0.0

[in] Answer whether the compound `CN1CCN(C(=O)c2cc(Cl)cc(C(F)(F)F)c2N2CC[C@@H](NC(=O)c3cc(=O)[nH]c4c(F)cccc34)C2)CC1` has EC50 strictly less than 1 nM
[out] 0.0

[in] Answer whether the compound `COc1cccc2[nH]c(=O)cc(C(=O)N[C@@H]3CCN(c4c(C(=O)N5CCOCC5)cc(C)cc4C4CC4)C3)c12` has EC50 strictly less than 1 nM
[out] 0.0

---

Test system: OC43 virus
Assay: microbe, parasite or virus in culture
Assay type: cell-based
Conditions: Betacoronavirus 1, OC43, Huh-7, read-out: Antiviral OC43 EC50 (μM)
Parameter: EC50. Scope: all listed entries.
Give your result in µM as a bare value.

Known EC50 results, listed for orientation:
| Compound | EC50 (µM) |
| --- | --- |
| COc1cccc2[nH]c(=O)cc(C(=O)N[C@@H]3CCN(c4c(C(=O)N5CCOCC5)cc(C#N)cc4C(F)(F)F)C3)c12 [Compound 9] | 0.28 |
| O=C(N[C@@H]1CCN(c2c(C(=O)N3CCOCC3)cc(Br)cc2C(F)(F)F)C1)c1cc(=O)[nH]c2ccccc12 [Compound 56] | 0.014 |
| O=C(N[C@@H]1CCN(c2c(C(=O)N3CCOCC3)cc(Br)cc2C(F)(F)F)C1)c1c(F)c(=O)[nH]c2c(F)cccc12 [Compound 48] | 0.031 |

[in] So what does the record say about EC50 for COc1cccc2[nH]c(=O)cc(C(=O)N[C@@H]3CCN(c4c(C(=O)N5CCOCC5)cc(F)cc4C4CC4)C3)c12 [Compound 79] ?
[out] 0.02

[in] So what does the record say about EC50 for COc1cccc2[nH]c(=O)cc(C(=O)N[C@@H]3CCN(c4c(C(=O)N5CCOCC5)cc(Cl)nc4C4CC4)C3)c12 [Compound 82] ?
[out] 0.083

[in] So what does the record say about EC50 for C[C@@H]1C[C@@H](NC(=O)c2cc(=O)[nH]c3c(F)cccc23)CN1c1c(C(=O)N2CCOCC2)cc(C#N)cc1C(F)(F)F [Compound 30] ?
[out] 0.029

---

Parameter pEC50, tested on SARS-CoV-1 Mpro (Severe acute respiratory syndrome coronavirus (SARS-CoV), UniProt P0C6X7), listed per item.
Scale note: pEC50 = -log10(concentration in M).

Known pEC50 results, listed for orientation:
| Smiles notation | Observed |
| --- | --- |
| O=C(N[C@@H]1CCN(c2c(C(=O)N3CCOCC3)cc(Br)cc2C(F)(F)F)C1)c1cc(C(F)F)[nH]c(=O)c1 | 8.34 |
| CN1CCN(C(=O)c2cc(C#N)cc(C(F)(F)F)c2N2CC[C@@H](NC(=O)c3cc(=O)[nH]c4c(F)cccc34)C2)CC1 | 8.56 |
| Cc1cc(C(=O)N2CCOCC2)c(N2C[C@H](NC(=O)c3cc(=O)[nH]c4c(F)c(F)ccc34)C[C@H]2C)c(C2CC2)c1 | 8.82 |
| O=C(N[C@@H]1CCN(c2c(C(=O)N3CCOCC3)cc(Cl)cc2C(F)(F)F)C1)c1cc(=O)[nH]c2c(F)cccc12 | 8.84 |

Proceed to the following item.
[in] Which pEC50 is reported with SARS-CoV-1 Mpro (Severe acute respiratory syndrome coronavirus (SARS-CoV), UniProt P0C6X7) for this entry: `N#Cc1cc(C(=O)N2CCOCC2)c(N2C[C@H](NC(=O)c3cc(=O)[nH]c4c(F)c(F)ccc34)CC2=O)c(C(F)(F)F)c1` ?
[out] 8.53

---

Molecular target: SARS-CoV-2 Mpro (Severe acute respiratory syndrome coronavirus 2 (2019-nCoV) (SARS-CoV-2), UniProt P0DTD1)
Checkbox rule: EC50 lower than 1 nM = 1 (yes); EC50 not lower than 1 nM = 0 (no).

| Molecule | Assigned class |
| --- | --- |
| N#Cc1cc(C(=O)N2CCOCC2)c(N2CC[C@@H](NC(=O)c3cc(=O)[nH]c4c(F)cc(F)cc34)C2)c(C(F)(F)F)c1 [Compound 7] | 1 (yes) |
| C[C@@H]1C[C@@H](NC(=O)c2cc(=O)[nH]c3c(F)c(F)ccc23)CN1c1c(C(=O)N2CCOCC2)cc(C#N)cc1C(F)(F)F [Compound 31] | 1 (yes) |
| COc1cccc2[nH]c(=O)cc(C(=O)N[C@@H]3CCN(c4c(C5CC5)ccc(F)c4C(=O)N4CCOCC4)C3)c12 [Compound 78] | 0 (no) |

[in] Answer whether the molecule O=C(N[C@@H]1CCN(c2c(OC(F)F)cc(Cl)cc2C(=O)N2CCOCC2)C1)c1cc(=O)[nH]c2c(F)cccc12 [Compound 43] has EC50 strictly less than 1 nM
[out] 1 (yes)

[in] Answer whether the molecule COc1cccc2[nH]c(=O)cc(C(=O)N[C@@H]3CCN(c4c(C(=O)N5CCOCC5)cc(C#N)cc4C(F)(F)F)C3)c12 [Compound 9] has EC50 strictly less than 1 nM
[out] 1 (yes)
